# target under test: T1, Parkin R0RBR module (RING0, RING1, IBR, RING2), wild type (rat, UniProt Q9JK66 141-465)
# T1 chain: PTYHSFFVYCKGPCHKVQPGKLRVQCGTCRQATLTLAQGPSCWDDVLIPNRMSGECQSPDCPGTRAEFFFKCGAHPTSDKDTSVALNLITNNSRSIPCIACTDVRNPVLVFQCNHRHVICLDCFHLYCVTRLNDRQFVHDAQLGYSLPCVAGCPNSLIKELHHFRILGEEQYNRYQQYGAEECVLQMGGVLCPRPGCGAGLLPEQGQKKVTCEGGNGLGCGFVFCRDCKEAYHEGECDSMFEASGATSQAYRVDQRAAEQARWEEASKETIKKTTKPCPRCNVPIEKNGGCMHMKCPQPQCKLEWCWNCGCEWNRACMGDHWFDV
# assay info: ITC
quantity: pKd
Give bare numbers, as −log10 of the molar value.

Req: Recorded pKd of Parkin Ubl domain (ubiquitin-like domain), unmodified (domain or fragment) MIVFVRFNSSYGFPVEVDSDTSIFQLKEVVAKRQGVPADQLRVIFAGKELQNHLTVQNCDLEQQSIVHIVQRPQRK , please.
Resp: 4.85
